Target: DNA dC->dU-editing enzyme APOBEC-3G (Homo sapiens) (UniProt Q9HC16)
Sequence (Q9HC16 whole entry, looked up): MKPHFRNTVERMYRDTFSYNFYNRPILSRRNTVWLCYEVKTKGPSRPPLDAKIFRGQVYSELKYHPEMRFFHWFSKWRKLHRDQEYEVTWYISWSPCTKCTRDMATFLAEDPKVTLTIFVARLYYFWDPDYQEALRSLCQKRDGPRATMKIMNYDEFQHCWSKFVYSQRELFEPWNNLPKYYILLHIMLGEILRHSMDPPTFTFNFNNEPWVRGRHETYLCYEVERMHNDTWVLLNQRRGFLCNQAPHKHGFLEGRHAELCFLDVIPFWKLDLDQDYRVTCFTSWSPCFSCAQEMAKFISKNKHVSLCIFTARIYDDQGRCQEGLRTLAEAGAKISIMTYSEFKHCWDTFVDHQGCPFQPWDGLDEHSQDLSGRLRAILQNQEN
Experiment: APOBEC3G DNA deaminase inhibitors, primary screen, biochemical, fluorescence, single-stranded DNA substrate, uHTS (AID 493012);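 further: plate controls were DMSO wells with A3G for no effect and wells lacking A3G enzyme for full effect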
Conditions: recombinant A3G, ssDNA deamination FAM/TAMRA fluorescence; at 20 µM; active compounds read high
In all, about 330,000 compounds went through this assay and about 930 (0.28%) were called active. The sample holds actives, similar compounds and a random draw of the others, so the mix is not that of the screen.
Consider the following compounds; for each one, report its inhibition.
Give just the number in %; leave the unit off.

I looked up Nc1ccccc1SC(C[N+](=O)[O-])c1ccccc1 (centres undefined) and its inhibition for DNA dC->dU-editing enzyme APOBEC-3G (Homo sapiens) (UniProt Q9HC16) was 75.7

Form field inhibition for item `COc1ccc(-c2nc(SCC(=O)N3CCCC3)n[nH]2)cc1` on DNA dC->dU-editing enzyme APOBEC-3G (Homo sapiens) (UniProt Q9HC16): -17.7

Value sought: inhibition, system DNA dC->dU-editing enzyme APOBEC-3G (Homo sapiens) (UniProt Q9HC16), item `CNS(=O)(=O)c1ccc(NC(=O)Nc2ccc3c(c2)OCO3)cc1` . Result: -9.95

// returns inhibition for CCOC(=O)C1=C(N)N2C(=O)C(C)SC2=C(C(=O)OCC)C1c1cc(OC)c(OC)c(OC)c1 (centres undefined) with DNA dC->dU-editing enzyme APOBEC-3G (Homo sapiens) (UniProt Q9HC16); value = -2.88

DNA dC->dU-editing enzyme APOBEC-3G (Homo sapiens) (UniProt Q9HC16) data for `COC(=O)c1c(C)c(C)nc(N)c1C#N` ; its inhibition: -1.41

The value of inhibition recorded for `Cn1c2ccccc2c(=O)c2c(=O)n(Cc3ccco3)c(COc3ccccc3)nc21` when tested on DNA dC->dU-editing enzyme APOBEC-3G (Homo sapiens) (UniProt Q9HC16) reads 52.8

Given the compound `Fc1ccccc1/C=N/n1c(-c2cccnc2)n[nH]c1=S` and test system DNA dC->dU-editing enzyme APOBEC-3G (Homo sapiens) (UniProt Q9HC16), the measured inhibition is 47.1

Case `CC(=O)N1C(=O)/C(=C2\SC(=S)N(NC(=O)c3ccc(O)cc3)C2=O)c2ccccc21` , DNA dC->dU-editing enzyme APOBEC-3G (Homo sapiens) (UniProt Q9HC16), inhibition recorded as 1.88

Item: `COc1ccccc1OCC(=O)Nc1c2c(nn1-c1ccc(F)cc1)CS(=O)(=O)C2` | System: DNA dC->dU-editing enzyme APOBEC-3G (Homo sapiens) (UniProt Q9HC16) | inhibition: -3.56

// assay DNA dC->dU-editing enzyme APOBEC-3G (Homo sapiens) (UniProt Q9HC16), entry `CCOC(=O)c1ccc(Nc2cc3ccccc3c(=O)[nH]2)cc1` , inhibition value = -6.08

Response field inhibition (DNA dC->dU-editing enzyme APOBEC-3G (Homo sapiens) (UniProt Q9HC16)) for item `Cc1cccc(-n2c(N)c(C(=O)N3CCN(C)CC3)sc2=S)c1` : 62.1

inhibition on DNA dC->dU-editing enzyme APOBEC-3G (Homo sapiens) (UniProt Q9HC16) for `CC(C)(C)NC(=O)Cn1cnc([N+](=O)[O-])n1` is -1.06

`S=c1[nH]nc(-c2ccncc2)n1/N=C/c1ccccc1Cl` on DNA dC->dU-editing enzyme APOBEC-3G (Homo sapiens) (UniProt Q9HC16) gives inhibition = 73.5

Tested on DNA dC->dU-editing enzyme APOBEC-3G (Homo sapiens) (UniProt Q9HC16): `N#Cc1ccccc1-n1c(N)c(C(=O)N2CCCC2)sc1=S` . Observed inhibition: 25.4

inhibition of CC1(C)C[C@H]2C3=CCC4[C@@]5(C)CC[C@H](O)[C@](C)(CO)C5CC[C@@]4(C)[C@]3(C)C[C@@H](O)[C@@]2(CO)[C@@H](O)[C@@H]1O (some centres undefined) , assay on DNA dC->dU-editing enzyme APOBEC-3G (Homo sapiens) (UniProt Q9HC16), is -1.86

COC(=O)c1cccc(N(C(=O)c2ccco2)C(C(=O)NC2CCCC2)c2ccco2)c1 (centres undefined) on DNA dC->dU-editing enzyme APOBEC-3G (Homo sapiens) (UniProt Q9HC16) gives inhibition = 0.606

Log: DNA dC->dU-editing enzyme APOBEC-3G (Homo sapiens) (UniProt Q9HC16), compound `CC1=C/C(=N\OS(=O)(=O)c2ccccc2)C=CC1=O` , inhibition = 71.9

Item: CCNC(=O)CC1C(=O)N(c2ccc(F)cc2)C(=O)N1CCc1sccc1C (centres undefined) | System: DNA dC->dU-editing enzyme APOBEC-3G (Homo sapiens) (UniProt Q9HC16) | inhibition: -6.98

The compound `CCC(CC)c1nnc(NC(=O)C2CCN(C(=O)c3ccco3)CC2)s1` , when measured on DNA dC->dU-editing enzyme APOBEC-3G (Homo sapiens) (UniProt Q9HC16), yielded inhibition of 43.5

inhibition for DNA dC->dU-editing enzyme APOBEC-3G (Homo sapiens) (UniProt Q9HC16) with input `O=C(Cn1cnc([N+](=O)[O-])n1)NCCc1ccccc1` equals 61.5

Entry CCn1cc(C(=O)N2CC(C)CC(C)C2)c(=O)c2cc(S(=O)(=O)N3CCCC3)ccc21 (centres undefined) under DNA dC->dU-editing enzyme APOBEC-3G (Homo sapiens) (UniProt Q9HC16) had inhibition of -1.06

inhibition of Cc1ccccc1-n1cc(CNC(=O)C2CCC(=O)N(C3CC3)C2)cn1 (centres undefined) , assay on DNA dC->dU-editing enzyme APOBEC-3G (Homo sapiens) (UniProt Q9HC16), is -4.71

Note to self: inhibition of Brc1ccc(C2CC(c3ccccc3)=Nc3ccccc3N2)cc1 (centres undefined) with DNA dC->dU-editing enzyme APOBEC-3G (Homo sapiens) (UniProt Q9HC16) was -3.13

The compound COc1ccc(N2C(=O)CC(Sc3n[nH]c(-c4ccc(C)cc4)n3)C2=O)cc1 (centres undefined) , when measured on DNA dC->dU-editing enzyme APOBEC-3G (Homo sapiens) (UniProt Q9HC16), yielded inhibition of 41.5

# CCOC(=O)C(NC(C)=O)C(=O)Nc1ccc(OC)cc1 (centres undefined) with DNA dC->dU-editing enzyme APOBEC-3G (Homo sapiens) (UniProt Q9HC16): inhibition is -5.93

Fill in: DNA dC->dU-editing enzyme APOBEC-3G (Homo sapiens) (UniProt Q9HC16) inhibition for `CCC(=O)Nc1ccccc1C(=O)N1CCN(Cc2ccccc2)CC1` = -6.48

# inhibition measured on DNA dC->dU-editing enzyme APOBEC-3G (Homo sapiens) (UniProt Q9HC16) for item `CCCc1nc2c(c(=O)c3ccccc3n2C)c(=O)n1C1CCCCCC1` = 2.29

# value of inhibition, DNA dC->dU-editing enzyme APOBEC-3G (Homo sapiens) (UniProt Q9HC16), item `O=C(Cc1ccsc1)N1CCN(S(=O)(=O)c2cc(C(F)(F)F)cc(C(F)(F)F)c2)CC1` = -3.29

Value (inhibition, DNA dC->dU-editing enzyme APOBEC-3G (Homo sapiens) (UniProt Q9HC16)) for record `COc1ccc(C2=NO[C@@H]3C(=O)N(Cc4ccccc4)C(=O)[C@H]23)cc1OC` = -9.52

Reading of inhibition for `Cc1ccsc1/C=N/n1c(=S)[nH]nc(C)c1=O` with DNA dC->dU-editing enzyme APOBEC-3G (Homo sapiens) (UniProt Q9HC16): -0.898

// returns inhibition for `S=c1[nH]nc(-c2cccs2)n1/N=C/c1cccs1` with DNA dC->dU-editing enzyme APOBEC-3G (Homo sapiens) (UniProt Q9HC16); value = 27.3

Reported DNA dC->dU-editing enzyme APOBEC-3G (Homo sapiens) (UniProt Q9HC16) inhibition for item `COc1ccc(CNC(=O)C(=O)N2CCC3(CC2)OCCN3S(=O)(=O)c2ccc(C)cc2)cc1` was -5.73

The observed inhibition for `COc1cc(/C=C/C(=O)OCC(=O)N2CCOCC2)ccc1OCC#N` when tested with DNA dC->dU-editing enzyme APOBEC-3G (Homo sapiens) (UniProt Q9HC16) stands at -3.2

Per the reported DNA dC->dU-editing enzyme APOBEC-3G (Homo sapiens) (UniProt Q9HC16) data, COC(=O)c1cccc(N2C(=O)C3C4C=CC(CC4)C3C2=O)c1 (centres undefined) has inhibition of -6.25

So the reported inhibition for `CCOc1ccc(Br)cc1S(=O)(=O)Nc1cccc(S(=O)(=O)N(CC)CC)c1` , on DNA dC->dU-editing enzyme APOBEC-3G (Homo sapiens) (UniProt Q9HC16), turned out to be -8.57

For the compound `O=c1c2ccccc2oc2nc(C3CCCCC3)n(Cc3ccco3)c(=O)c12` , the measured inhibition on DNA dC->dU-editing enzyme APOBEC-3G (Homo sapiens) (UniProt Q9HC16) was -6.57

Fill in: DNA dC->dU-editing enzyme APOBEC-3G (Homo sapiens) (UniProt Q9HC16) inhibition for `COc1ccc(/C=N/n2nnnc2N)cc1OC` = -3.77

Considering `Cc1ccc(Sc2ccncc2S(N)(=O)=O)cc1` , its inhibition with DNA dC->dU-editing enzyme APOBEC-3G (Homo sapiens) (UniProt Q9HC16) was recorded as -12.3

Result for `CCc1nnc(NC(=O)C2CCN(C(=O)c3ccccc3C)CC2)s1` , tested on DNA dC->dU-editing enzyme APOBEC-3G (Homo sapiens) (UniProt Q9HC16), inhibition: -4.15

Value (inhibition, DNA dC->dU-editing enzyme APOBEC-3G (Homo sapiens) (UniProt Q9HC16)) for record CC(C)CCNC(=O)C1CCC(CNc2c(N3CCC(C)CC3)c(=O)c2=O)CC1 (centres undefined) = -1.82

Measured inhibition (DNA dC->dU-editing enzyme APOBEC-3G (Homo sapiens) (UniProt Q9HC16)), entry `COc1ccc2c(c1)C(=O)Nc1cc(Cl)ccc1N2` : -7.65

DNA dC->dU-editing enzyme APOBEC-3G (Homo sapiens) (UniProt Q9HC16) inhibition of `O=C(Nc1ccc(-c2ccc3nncn3n2)cc1)C1CCCCC1` is -1.63

Case `COc1cc(/C=N/n2c(C)n[nH]c2=S)ccc1OCc1ccccc1` , DNA dC->dU-editing enzyme APOBEC-3G (Homo sapiens) (UniProt Q9HC16), inhibition recorded as 9.64

Measured inhibition for this entry `CC(C)NC(=O)c1ccc(Sc2ccccc2)c([N+](=O)[O-])c1` on DNA dC->dU-editing enzyme APOBEC-3G (Homo sapiens) (UniProt Q9HC16): -2.3

The reported numbers originate from PubChem BioAssay AID493012.
